src = ChEMBL document CHEMBL1130603

- tgt: Hepatitis C virus serine protease, NS3/NS4A (Hepatitis C virus, UniProt A3EZI9+D2K2A8)
- procedure summary: Inhibition of hepatitis C virus (HCV) NS3 protease.
Square brackets hold non-standard residues; d marks the D form. Peptide text beside a SMILES is read from it. * marks the point of attachment. Nle = CCCC[C@H](N)C(=O)O; Nva = CCC[C@H](N)C(=O)O; Abu = CC[C@H](N)C(=O)O; CF3 = FC(F)(F)*
readout name: IC50 (µM)

Reference set (5 entries):
{"molecule": "CCC[C@H](NC(=O)[C@@H]1CCCN1C(=O)[C@@H](NC(=O)[C@@H](NC(=O)[C@@H](CC(=O)O)NC(=O)[C@H](CC(=O)O)NC(C)=O)[C@@H](C)CC)C(C)C)C(=O)C(F)(F)C(F)(F)F", "IC50 / µM": 12}
{"molecule": "CC[C@@H](C)[C@H](NC(=O)[C@@H]1CCCN1C(=O)[C@@H](NC(=O)[C@@H](NC(=O)[C@H](CC(=O)O)NC(=O)[C@H](CC(=O)O)NC(C)=O)[C@@H](C)CC)C(C)C)C(=O)O", "IC50 / µM": 190}
{"molecule": "CCC[C@H](NC(=O)[C@@H]1CCCN1C(=O)[C@@H](NC(=O)[C@@H](NC(=O)[C@@H](CC(=O)O)NC(=O)[C@H](CC(=O)O)NC(C)=O)[C@@H](C)CC)C(C)C)C(=O)O (Ac-D[dD]IVP[Nva]-OH)", "IC50 / µM": 17}
{"molecule": "CC[C@H](NC(=O)[C@@H]1CCCN1C(=O)[C@@H](NC(=O)[C@@H](NC(=O)[C@H](CC(=O)O)NC(=O)[C@H](CC(=O)O)NC(C)=O)[C@@H](C)CC)C(C)C)C(=O)O (Ac-DDIVP[Abu]-OH)", "IC50 / µM": 250}
{"molecule": "CCCC[C@H](NC(=O)[C@@H]1CCCN1C(=O)[C@@H](NC(=O)[C@@H](NC(=O)[C@H](CC(=O)O)NC(=O)[C@H](CC(=O)O)NC(C)=O)[C@@H](C)CC)C(C)C)C(=O)O (Ac-DDIVP[Nle]-OH)", "IC50 / µM": 500}

A. CCC[C@H](NC(=O)[C@@H]1CCCN1C(=O)[C@@H](NC(=O)[C@@H](NC(=O)[C@H](CC(=O)O)NC(=O)[C@H](CC(=O)O)NC(C)=O)[C@@H](C)CC)C(C)C)C(=O)C(F)(F)F (Ac-DDIVP[Nva]-CF3)
B. CC[C@H](C)[C@H](NC(=O)[C@H](CC(=O)O)NC(=O)[C@H](CC(=O)O)NC(C)=O)C(=O)N[C@H](C(=O)N1CCC[C@H]1C(=O)N[C@@H](CS)C(=O)O)C(C)C
# query: argmin of IC50 over A and B Your answer should be the label of the entry you select. B

P. CCC[C@H](NC(=O)[C@@H]1CCCN1C(=O)[C@@H](NC(=O)[C@@H](NC(=O)[C@H](CC(=O)O)NC(=O)[C@H](CC(=O)O)NC(C)=O)[C@@H](C)CC)C(C)C)C(=O)C(F)(F)C(F)(F)F
Q. CCC[C@H](NC(=O)[C@@H]1CCCN1C(=O)[C@@H](NC(=O)[C@@H](NC(=O)[C@@H](CC(=O)O)NC(=O)[C@H](CC(=O)O)NC(C)=O)[C@@H](C)CC)C(C)C)C(=O)C(F)(F)F (Ac-D[dD]IVP[Nva]-CF3)
Which entry has a larger number for IC50, P or Q ? Identify your selection by its label. P

P. CCC[C@H](CO)NC(=O)[C@@H]1CCCN1C(=O)[C@@H](NC(=O)[C@@H](NC(=O)[C@@H](CC(=O)O)NC(=O)[C@H](CC(=O)O)NC(C)=O)[C@@H](C)CC)C(C)C
Q. CCC[C@@H](C=O)NC(=O)[C@@H]1CCCN1C(=O)[C@@H](NC(=O)[C@@H](NC(=O)[C@H](CC(=O)O)NC(=O)[C@H](CC(=O)O)NC(C)=O)[C@@H](C)CC)C(C)C
R. CCC[C@H](NC(=O)[C@@H]1CCCN1C(=O)[C@@H](NC(=O)[C@@H](NC(=O)[C@@H](CC(=O)O)NC(=O)[C@H](CC(=O)O)NC(C)=O)[C@@H](C)CC)C(C)C)C(=O)C(=O)NCc1ccccc1
Order by IC50, ascending. Thanks in advance for listing the labels in the requested order. R, Q, P
(R: 0.64 µM, Q: 10 µM, P: 280 µM)

A. CCC[C@@H](C=O)NC(=O)[C@@H]1CCCN1C(=O)[C@@H](NC(=O)[C@@H](NC(=O)[C@@H](CC(=O)O)NC(=O)[C@H](CC(=O)O)NC(C)=O)[C@@H](C)CC)C(C)C
B. CCC[C@H](NC(=O)[C@@H]1CCCN1C(=O)[C@@H](NC(=O)[C@@H](NC(=O)[C@H](CC(=O)O)NC(=O)[C@H](CC(=O)O)NC(C)=O)[C@@H](C)CC)C(C)C)C(=O)C(=O)NCc1ccccc1
C. CCC[C@H](NC(=O)[C@@H]1CCCN1C(=O)[C@@H](NC(=O)[C@@H](NC(=O)[C@H](CC(=O)O)NC(=O)[C@H](CC(=O)O)NC(C)=O)[C@@H](C)CC)C(C)C)C(=O)O (Ac-DDIVP[Nva]-OH)
In this exercise, place the 3 molecules in ascending sequence of their recorded IC50. # respond with the labels, arranged in the requested order A, B, C

====

- tgt: Hepatitis C virus serine protease, NS3/NS4A (Hepatitis C virus, UniProt D2K2A8+A3EZI9)
- procedure summary: Compound was tested for competitive inhibition of hepatitis C virus (HCV) serine protease
readout name: Ki (nM)
Numbers only; they are read as nM.

Quick note, Ki for "CC[C@H](C)[C@H](NC(=O)[C@@H](CC(=O)O)NC(=O)[C@H](CC(=O)O)NC(C)=O)C(=O)N[C@H](C(=O)N1CCC[C@@H]1C(=O)N[C@@H](CS)C(=O)O)C(C)C" landed at 600

====

Values of IC50 reported for Cathepsin B (Homo sapiens) appear below.
Square brackets hold non-standard residues; d marks the D form. Peptide text beside a SMILES is read from it. * marks the point of attachment. Nva = CCC[C@H](N)C(=O)O; CF3 = FC(F)(F)*

{"molecule": "CCC[C@@H](NC(=O)[C@@H]1CCCN1C(=O)[C@@H](NC(=O)[C@@H](NC(=O)[C@@H](CC(=O)O)NC(=O)[C@H](CC(=O)O)NC(C)=O)[C@@H](C)CC)C(C)C)C(=O)OCc1ccccc1", "IC50": "> 1000 µM"}
{"molecule": "CCC[C@H](NC(=O)[C@@H]1CCCN1C(=O)[C@@H](NC(=O)[C@@H](NC(=O)[C@@H](CC(=O)O)NC(=O)[C@H](CC(=O)O)NC(C)=O)[C@@H](C)CC)C(C)C)C(=O)O (Ac-D[dD]IVP[Nva]-OH)", "IC50": "> 1000 µM"}
{"molecule": "CCC[C@H](NC(=O)[C@@H]1CCCN1C(=O)[C@@H](NC(=O)[C@@H](NC(=O)[C@H](CC(=O)O)NC(=O)[C@H](CC(=O)O)NC(C)=O)[C@@H](C)CC)C(C)C)C(=O)C(=O)NCc1ccccc1", "IC50": "100 µM"}

Would you kindly look at the next entry?
Item: CCC[C@H](NC(=O)[C@@H]1CCCN1C(=O)[C@@H](NC(=O)[C@@H](NC(=O)[C@@H](CC(=O)O)NC(=O)[C@H](CC(=O)O)NC(C)=O)[C@@H](C)CC)C(C)C)C(=O)C(F)(F)F (Ac-D[dD]IVP[Nva]-CF3) | System: Cathepsin B (Homo sapiens) | IC50: > 900 µM

====

- tgt: Neutrophil elastase (Homo sapiens, UniProt P08246)
- Sequence (P08246 whole entry): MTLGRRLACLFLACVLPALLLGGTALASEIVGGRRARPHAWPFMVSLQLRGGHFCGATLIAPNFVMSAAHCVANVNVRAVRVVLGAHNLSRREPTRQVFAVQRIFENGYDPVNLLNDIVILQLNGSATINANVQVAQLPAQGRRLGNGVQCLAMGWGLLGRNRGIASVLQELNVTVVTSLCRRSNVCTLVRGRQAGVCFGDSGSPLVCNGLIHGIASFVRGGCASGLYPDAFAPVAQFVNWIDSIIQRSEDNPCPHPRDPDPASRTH
- procedure summary: Compound was tested for inhibition of human leucocyte elastase (HLE)
readout name: IC50 (µM)

{"item smiles": "CCC[C@@H](C=O)NC(=O)[C@@H]1CCCN1C(=O)[C@@H](NC(=O)[C@@H](NC(=O)[C@@H](CC(=O)O)NC(=O)[C@H](CC(=O)O)NC(C)=O)[C@@H](C)CC)C(C)C", "units of measure": "µM", "meas value": 6.7}

P. CCC[C@H](NC(=O)[C@@H]1CCCN1C(=O)[C@@H](NC(=O)[C@@H](NC(=O)[C@@H](CC(=O)O)NC(=O)[C@H](CC(=O)O)NC(C)=O)[C@@H](C)CC)C(C)C)C(=O)C(F)(F)C(F)(F)F
Q. CCC[C@H](NC(=O)[C@@H]1CCCN1C(=O)[C@@H](NC(=O)[C@@H](NC(=O)[C@H](CC(=O)O)NC(=O)[C@H](CC(=O)O)NC(C)=O)[C@@H](C)CC)C(C)C)C(=O)C(=O)NCc1ccccc1
Lab notebook, comparison: P versus Q , higher IC50 goes to which? Respond using the label that marks the chosen record. P

a. CCC[C@@H](NC(=O)[C@@H]1CCCN1C(=O)[C@@H](NC(=O)[C@@H](NC(=O)[C@@H](CC(=O)O)NC(=O)[C@H](CC(=O)O)NC(C)=O)[C@@H](C)CC)C(C)C)C(=O)NCc1ccccc1
b. CCC[C@H](NC(=O)[C@@H]1CCCN1C(=O)[C@@H](NC(=O)[C@@H](NC(=O)[C@@H](CC(=O)O)NC(=O)[C@H](CC(=O)O)NC(C)=O)[C@@H](C)CC)C(C)C)C(=O)C(=O)NCc1ccccc1
Between item a and item b , which reported IC50 is smaller? Write the label of whichever entry you select. b
